# system_under_test: full length active recombinant SYK enzyme (Homo sapiens, UniProt P43405)
# Construct: full length active recombinant SYK enzyme (Millipore, Calif.)
# assay_overview: Inhibition of Syk tyrosine phosphorylation activity (LANCE TR-FRET kinase assay)
# details: activity in the Syk assays, class symbols
pIC50: −log10 of the molar value.
measured_quantity: pIC50

The examples below pair each entry with its known result.
{"columns": ["molecule", "system_under_test", "pIC50"],
 "data": [
  ["Cc1cccc(Nc2nc(N[C@H]3CC[C@@H](N)CC3)cnc2C(N)=O)c1", "full length active recombinant SYK enzyme (Homo sapiens, UniProt P43405)", "7.00 to 8.00"],
  ["CC(C)[C@@H](Nc1cnc(C(N)=O)c(Nc2ccc(-c3ccccn3)cc2)n1)C(N)=O", "full length active recombinant SYK enzyme (Homo sapiens, UniProt P43405)", "7.00 to 8.00"],
  ["NC(=O)c1ncc(N[C@H](CC2CC2)C(N)=O)nc1Nc1cnc2cccnc2c1", "full length active recombinant SYK enzyme (Homo sapiens, UniProt P43405)", "8.00 to 9.00"],
  ["NC(=O)c1ncc(N[C@@H]2CCCC[C@@H]2N)nc1Nc1ccc(-n2cccn2)cc1 [Example 276]", "full length active recombinant SYK enzyme (Homo sapiens, UniProt P43405)", "8.00 to 9.00"],
  ["NC(=O)c1ncc(NC[C@@H](N)CC(F)F)nc1Nc1cccc(-c2ncccn2)c1", "full length active recombinant SYK enzyme (Homo sapiens, UniProt P43405)", "7.00 to 8.00"]
]}

Suppose we examine the molecule NC(=O)c1ncc(N[C@@H]2CCCC(F)(F)[C@@H]2N)nc1Nc1ccc2c(c1)CCC2 ; what pIC50 value has been reported?
7.00 to 8.00

So what's the measured pIC50 for this one? NC(=O)c1ncc(N[C@@H]2CCCC[C@@H]2N)nc1NC1Cc2ccccc2C1
7.00 to 8.00

Look at this molecule and give its reported pIC50. CC(C)C[C@@H](Nc1cnc(C(N)=O)c(Nc2cnc3cccnc3c2)n1)C(N)=O
8.00 to 9.00

Recorded pIC50 for Cc1nsc(Nc2nc(N[C@@H]3CCCC[C@@H]3N)cnc2C(N)=O)c1-c1ccccc1 , please?
7.00 to 8.00

Consider the molecule CCc1c(C)nsc1Nc1nc(N[C@@H]2CCCC[C@@H]2N)cnc1C(N)=O and give its measured pIC50.
8.00 to 9.00
